System: IMC-1 (IL-2 20 ng/mL)
assayText: relative IC50 (inflection point of fitted viability curve, relative to fitted max inhibition); higher = less sensitive
testSettings: 72 h
readoutKind: relative IC50 (µM)

- COc1cc2c(cc1-c1c(C)noc1C)ncc1[nH]c(=O)n([C@H](C)c3ccccn3)c12: 2.04
- Cc1ccc(NC(=O)c2ccc(CN3CCN(C)CC3)cc2)cc1Nc1nccc(-c2cccnc2)n1: 3.4
- Cc1cc(Nc2cc(N3CCN(C)CC3)nc(Sc3ccc(NC(=O)C4CC4)cc3)n2)n[nH]1: 0.283
- O=C1c2c(O)ccc(O)c2C(=O)c2c(NCCNCCO)ccc(NCCNCCO)c21: 0.17
- Nc1nc(NC2CC2)cc(-c2cccc(Cl)c2Cl)n1: 6.38
- Cc1c(C(=O)Nc2ccc(N3C[C@@H](C)O[C@@H](C)C3)nc2)cccc1-c1ccc(OC(F)(F)F)cc1: 2.25
- CC(=O)[C@]1(O)Cc2c(O)c3c(c(O)c2[C@@H](O[C@H]2C[C@H](N)[C@H](O)[C@H](C)O2)C1)C(=O)c1ccccc1C3=O: 0.00771
- COc1ccc(-c2cc3c(C)nc(N)nc3n([C@H]3CC[C@H](OCCO)CC3)c2=O)cn1: 4.02
- CC[C@@]1(O)C(=O)OCc2c1cc1n(c2=O)Cc2cc3c(CN(C)C)c(O)ccc3nc2-1: 0.0308
- CNC(=O)c1nn(C)c2c1C(C)(C)Cc1cnc(Nc3ccc(N4CCN(C)CC4)cc3)nc1-2: 3.42
- CN1CCN(CCOc2cc(OC3CCOCC3)c3c(Nc4c(Cl)ccc5c4OCO5)ncnc3c2)CC1: 3.2
- N.N.[Cl][Pt][Cl] [Cisplatin]: 0.515
- CN(C)C[C@@H]1CCn2cc(c3ccccc32)C2=C(C(=O)NC2=O)c2cn(c3ccccc23)CCO1: 4.18
- CO[C@@]12[C@H](COC(N)=O)C3=C(C(=O)C(C)=C(N)C3=O)N1C[C@@H]1N[C@@H]12: 2.71

====

Overview of reported percent inhibition of viability across a group of compounds:
Tested on: normal primary NK cells, pool 3 (3 donors) (IL-2 2.5 ng/mL);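 further: normalised to DMSO-only wells as negative and benzethonium chloride as positive control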
assayText: percent inhibition of viability; higher = more inhibition
testSettings: 72 h; 10 nM
readoutKind: percent inhibition of viability (%)

• Cc1cc(Nc2cc(N3CCN(C)CC3)nc(Sc3ccc(NC(=O)C4CC4)cc3)n2)n[nH]1 [Tozasertib] (max concentration tested 10000 nM) = -4.94
• Nc1cccc2c1C(=O)N(C1CCC(=O)NC1=O)C2=O (configuration not stated) [Pomalidomide] (max concentration tested 10000 nM) = 7.94
• CN(C[C@@H]1COCCO1)S(=O)(=O)Nc1ccc2ccc3ncc(-c4cnn(C)c4)cc3c(=O)c2c1 [MK-2461] (max concentration tested 10000 nM) = -6.11
• COc1cc2ncnc(Nc3ccc(F)c(Cl)c3)c2cc1NC(=O)/C=C/CN1CCCCC1 [Dacomitinib] (max concentration tested 1000 nM) = -1.6
• CC(=O)[C@]1(O)Cc2c(O)c3c(c(O)c2[C@@H](O[C@H]2C[C@H](N)[C@H](O)[C@H](C)O2)C1)C(=O)c1ccccc1C3=O [Idarubicin] (max concentration tested 1000 nM) = 46.5
• CO[C@H]1/C=C\C=C(/C)C(=O)NC2=CC(=O)C(NCCN(C)C)=C(C[C@@H](C)C[C@H](OC)[C@H](O)[C@@H](C)/C=C(\C)[C@@H]1OC(N)=O)C2=O [Alvespimycin] (max concentration tested 1000 nM) = 6.58
• COc1ccccc1S(=O)(=O)Nc1ccc2c(c1)CN(C)C(=O)N2 [PFI-1] (max concentration tested 10000 nM) = -5.87
• CC(C)C[C@H](NC(=O)[C@@H](COC(C)(C)C)NC(=O)[C@H](Cc1ccc(O)cc1)NC(=O)[C@H](CO)NC(=O)[C@H](Cc1c[nH]c2ccccc12)NC(=O)[C@H](Cc1cnc[nH]1)NC(=O)[C@@H]1CCC(=O)N1)C(=O)N[C@@H](CCCNC(=N)N)C(=O)N1CCC[C@H]1C(=O)NNC(N)=O [Goserelin] (max concentration tested 10000 nM) = -5.54
• CO[C@H]1C[C@@H]2CC[C@@H](C)[C@@](O)(O2)C(=O)C(=O)N2CCCC[C@H]2C(=O)O[C@H]([C@H](C)C[C@@H]2CC[C@@H](O)[C@H](OC)C2)CC(=O)[C@H](C)/C=C(\C)[C@@H](O)[C@@H](OC)C(=O)[C@H](C)C[C@H](C)/C=C/C=C/C=C/1C [Sirolimus] (max concentration tested 100 nM) = 6.87
• CNC(=O)c1ccc(C)c(-n2c(C)cc(OCc3ccc(F)cc3F)c(Br)c2=O)c1 (max concentration tested 1000 nM) = 4.48
• Cc1cn(-c2cc(NC(=O)c3ccc(C)c(Nc4nccc(-c5cccnc5)n4)c3)cc(C(F)(F)F)c2)cn1 [Nilotinib] (max concentration tested 10000 nM) = -5.87
• NC(=O)c1cccc2cn(-c3ccc([C@@H]4CCCNC4)cc3)nc12 [Niraparib] (max concentration tested 10000 nM) = -7.45
